Target: Factor X (FX) zymogen, active site titrated and DFP/EGR-cmk treated, P00742
Sequence (P00742 whole entry, looked up): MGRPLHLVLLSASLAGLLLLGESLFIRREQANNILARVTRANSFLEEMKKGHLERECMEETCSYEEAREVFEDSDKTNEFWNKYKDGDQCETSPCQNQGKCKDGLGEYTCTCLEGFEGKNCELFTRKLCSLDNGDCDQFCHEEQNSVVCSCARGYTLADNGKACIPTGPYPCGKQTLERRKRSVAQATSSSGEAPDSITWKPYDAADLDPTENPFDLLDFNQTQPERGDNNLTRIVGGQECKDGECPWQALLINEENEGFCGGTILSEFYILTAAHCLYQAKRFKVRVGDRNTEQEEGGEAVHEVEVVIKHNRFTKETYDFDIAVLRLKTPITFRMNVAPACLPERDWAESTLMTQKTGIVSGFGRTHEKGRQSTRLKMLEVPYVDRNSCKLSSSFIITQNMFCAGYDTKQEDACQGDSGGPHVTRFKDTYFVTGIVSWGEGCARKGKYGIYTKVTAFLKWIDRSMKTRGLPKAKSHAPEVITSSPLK
valueType: % of WT kcat/KM (against recombinant Catalyst Biosciences WT FIXa) (%)
Answers are plain numbers, in %.

Query: Fill in reported % of WT kcat/KM (against recombinant Catalyst Biosciences WT FIXa) for this entry: FIXa-R318Y/T343R/E410N (activated Factor IX variant, mature FIX numbering) (protein) chain 1: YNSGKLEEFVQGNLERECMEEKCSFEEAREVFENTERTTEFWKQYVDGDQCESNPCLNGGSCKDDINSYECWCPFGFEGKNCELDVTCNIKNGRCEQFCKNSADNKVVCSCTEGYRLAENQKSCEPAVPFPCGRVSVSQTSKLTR chain 2: VVGGEDAKPGQFPWQVVLNGKVDAFCGGSIVNEKWIVTAAHCVETGVKITVVAGEHNIEETEHTEQKRNVIRIIPHHNYNAAINKYNHDIALLELDEPLVLNSYVTPICIADKEYTNIFLKFGSGYVSGWGRVFHKGYSALVLQYLRVPLVDRATCLRSTKFRIYNNMFCAGFHEGGRDSCQGDSGGPHVTEVEGTSFLTGIISWGEECAMKGKYGIYTKVSRYVNWIKNKTKLT
Response: 135
